For each record, write down the corresponding IC50.
Test system: NB4 cell line
Method Description: leukemia cell growth inhibition, MTT
Assay type: cell-based
Applied Conditions: Homo sapiens, NB-4; NB4, 72 h
Answers are plain numbers, in µg/mL.

// known answers, use as guide
[[record]]
compound = "COC(=O)[C@]12CCC(C)(C)CC1C1=CCC3[C@@]4(C)CC(C(=O)NCCCN(C)C)C(=O)C(C)(C)C4CC[C@@]3(C)[C@]1(C)CC2 (stereo partly drawn)"
readout_value = 2.63

[[record]]
compound = "CC1(C)CC[C@]2(C(=O)O)CC[C@]3(C)C(=CC[C@@H]4[C@@]5(C)CC(C(=O)NCCN6CCCC6)C(=O)C(C)(C)[C@@H]5CC[C@]43C)[C@@H]2C1 (stereo partly drawn)"
readout_value = 10.6


Turning now to a further compound:
*Q* Identify measured IC50 associated with COC(=O)[C@]12CCC(C)(C)C[C@H]1C1=CC[C@@H]3[C@@]4(C)CC(C(=O)NCCN5CCOCC5)C(=O)C(C)(C)[C@@H]4CC[C@@]3(C)[C@]1(C)CC2 (stereo partly drawn)
*A* 9.74

###

Kindly state IC50 for each of the entries shown.
Test system: MG-63 cell line
Method Description: solid tumor cell growth inhibition, MTT
Format: cell-based
Applied Conditions: Homo sapiens, MG-63, 72 h

// worked examples, IC50 included
[[record]]
molecule = "CCOCCNC(=O)C1C[C@@]2(C)C(CC[C@]3(C)C2CC=C2C4CC(C)(C)CC[C@]4(C(=O)OC)CC[C@]23C)C(C)(C)C1=O (stereo partly drawn)"
study_target = "MG-63 cell line"
reported_metric = "IC50"
readout_value = "> 16 µg/mL"

[[record]]
molecule = "COC(=O)[C@]12CCC(C)(C)CC1C1=CCC3[C@@]4(C)CC(C(=O)NCCCN5CCOCC5)C(=O)C(C)(C)C4CC[C@@]3(C)[C@]1(C)CC2 (stereo partly drawn)"
study_target = "MG-63 cell line"
reported_metric = "IC50"
readout_value = "12.5 µg/mL"

[[record]]
molecule = "CCN(CC)CCCNC(=O)C1C[C@@]2(C)C(CC[C@]3(C)C2CC=C2C4CC(C)(C)CC[C@]4(C(=O)O)CC[C@]23C)C(C)(C)C1=O (stereo partly drawn)"
study_target = "MG-63 cell line"
reported_metric = "IC50"
readout_value = "> 16 µg/mL"

[[record]]
molecule = "COC(=O)[C@]12CCC(C)(C)CC1C1=CCC3[C@@]4(C)CC(C(=O)NCCCN5CCCC5)C(=O)C(C)(C)C4CC[C@@]3(C)[C@]1(C)CC2 (stereo partly drawn)"
study_target = "MG-63 cell line"
reported_metric = "IC50"
readout_value = "4.35 µg/mL"

[[record]]
molecule = "CC1(C)CC[C@]2(C(=O)O)CC[C@]3(C)C(=CC[C@@H]4[C@@]5(C)CC[C@H](O)C(C)(C)[C@@H]5CC[C@]43C)[C@@H]2C1"
study_target = "MG-63 cell line"
reported_metric = "IC50"
readout_value = "> 16 µg/mL"

[[record]]
molecule = "COC(=O)[C@]12CCC(C)(C)C[C@H]1C1=CC[C@@H]3[C@@]4(C)CC(C(=O)NCCN5CCCCC5)C(=O)C(C)(C)[C@@H]4CC[C@@]3(C)[C@]1(C)CC2 (stereo partly drawn)"
study_target = "MG-63 cell line"
reported_metric = "IC50"
readout_value = "8.37 µg/mL"


// input: 6 molecules below; output: IC50 for each
1. COC(=O)[C@]12CCC(C)(C)CC1C1=CCC3[C@@]4(C)CC(C(=O)NCCc5ccccn5)C(=O)C(C)(C)C4CC[C@@]3(C)[C@]1(C)CC2 (stereo partly drawn)
2. CC1(C)CC[C@]2(C(=O)O)CC[C@]3(C)C(=CC[C@@H]4[C@@]5(C)CC(C(=O)NCCN6CCCC6)C(=O)C(C)(C)[C@@H]5CC[C@]43C)[C@@H]2C1 (stereo partly drawn)
3. CCC(C)CNC(=O)C1C[C@@]2(C)C(CC[C@]3(C)C2CC=C2C4CC(C)(C)CC[C@]4(C(=O)OC)CC[C@]23C)C(C)(C)C1=O (stereo partly drawn)
4. CCN(CC)CCNC(=O)C1C[C@@]2(C)C(CC[C@]3(C)C2CC=C2C4CC(C)(C)CC[C@]4(C(=O)O)CC[C@]23C)C(C)(C)C1=O (stereo partly drawn)
5. CN1CCN(CCCNC(=O)C2C[C@]3(C)[C@H]4CC=C5[C@@H]6CC(C)(C)CC[C@]6(C(=O)O)CC[C@@]5(C)[C@]4(C)CC[C@H]3C(C)(C)C2=O)CC1 (stereo partly drawn)
6. COC(=O)[C@]12CCC(C)(C)CC1C1=CCC3[C@@]4(C)CC(C(=O)NCCC(C)C)C(=O)C(C)(C)C4CC[C@@]3(C)[C@]1(C)CC2 (stereo partly drawn)

*A*
1. > 16 µg/mL
2. 12.6 µg/mL
3. > 16 µg/mL
4. > 16 µg/mL
5. > 16 µg/mL
6. > 16 µg/mL

###

Tested on: PC-3 cell line
Method Description: solid tumor cell growth inhibition, MTT
Format: cell-based
Applied Conditions: Homo sapiens, PC-3, 72 h
Please assign NOT MET whenever IC50 is at or above 7 µg/mL, and MET whenever it is below.

A selection of reference data follows.
[[record]]
compound = "COC(=O)[C@]12CCC(C)(C)CC1C1=CCC3[C@@]4(C)CC(C(=O)NCCCN5CCCC5)C(=O)C(C)(C)C4CC[C@@]3(C)[C@]1(C)CC2 (some centres unmarked)"
study_target = "PC-3 cell line"
assigned_label = "MET"

[[record]]
compound = "CCN(CC)CCCNC(=O)C1C[C@@]2(C)C(CC[C@]3(C)C2CC=C2C4CC(C)(C)CC[C@]4(C(=O)O)CC[C@]23C)C(C)(C)C1=O (some centres unmarked)"
study_target = "PC-3 cell line"
assigned_label = "NOT MET"

[[record]]
compound = "CN1CCN(CCCNC(=O)C2C[C@]3(C)[C@H]4CC=C5[C@@H]6CC(C)(C)CC[C@]6(C(=O)O)CC[C@@]5(C)[C@]4(C)CC[C@H]3C(C)(C)C2=O)CC1 (some centres unmarked)"
study_target = "PC-3 cell line"
assigned_label = "NOT MET"

[[record]]
compound = "COC(=O)[C@]12CCC(C)(C)C[C@H]1C1=CC[C@@H]3[C@@]4(C)CC(C(=O)NCCN5CCCCC5)C(=O)C(C)(C)[C@@H]4CC[C@@]3(C)[C@]1(C)CC2 (some centres unmarked)"
study_target = "PC-3 cell line"
assigned_label = "NOT MET"

[[record]]
compound = "COC(=O)[C@]12CCC(C)(C)CC1C1=CCC3[C@@]4(C)CC(C(=O)NCCCN(C)C)C(=O)C(C)(C)C4CC[C@@]3(C)[C@]1(C)CC2 (some centres unmarked)"
study_target = "PC-3 cell line"
assigned_label = "MET"


*Q* Could you please tell me whether IC50 recorded for CCN(CC)CCNC(=O)C1C[C@@]2(C)C(CC[C@]3(C)C2CC=C2C4CC(C)(C)CC[C@]4(C(=O)OC)CC[C@]23C)C(C)(C)C1=O (some centres unmarked) is less than 7 µg/mL?
*A* MET

*Q* Report whether reported IC50 is lower than 7 µg/mL (strictly) for COC(=O)[C@]12CCC(C)(C)C[C@H]1C1=CC[C@@H]3[C@@]4(C)CC(C(=O)NCCN5CCOCC5)C(=O)C(C)(C)[C@@H]4CC[C@@]3(C)[C@]1(C)CC2 (some centres unmarked)
*A* NOT MET

*Q* Say whether its IC50 is strictly beneath 7 µg/mL. Entry: COC(=O)[C@]12CCC(C)(C)CC1C1=CCC3[C@@]4(C)CC(C(=O)NCCCN5CCOCC5)C(=O)C(C)(C)C4CC[C@@]3(C)[C@]1(C)CC2 (some centres unmarked)
*A* NOT MET

*Q* Answer whether the compound COC(=O)[C@]12CCC(C)(C)CC1C1=CCC3[C@@]4(C)CC(C(=O)NC5CC5)C(=O)C(C)(C)C4CC[C@@]3(C)[C@]1(C)CC2 (some centres unmarked) has IC50 strictly less than 7 µg/mL
*A* NOT MET

*Q* # TODO verify IC50 < 7 µg/mL strictly for this compound: COC(=O)[C@]12CCC(C)(C)C[C@H]1C1=CC[C@@H]3[C@@]4(C)CC(C(=O)NCC5CC5)C(=O)C(C)(C)[C@@H]4CC[C@@]3(C)[C@]1(C)CC2 (some centres unmarked)
*A* NOT MET

###

For each of the compounds below, state its inhibition at 16 µg/mL.
Tested on: Hela cell line
Method Description: solid tumor cell growth inhibition, MTT
Assay type: cell-based
Applied Conditions: Homo sapiens; Hela, 16 μg/mL compound, 72 h; read-out: IR (cell proliferation inhibition rate)
Give bare numbers, in %.

For orientation, consider the following solved cases.
[[record]]
compound = "COC(=O)[C@]12CCC(C)(C)C[C@H]1C1=CC[C@@H]3[C@@]4(C)CC(C(=O)NCCN5CCCCC5)C(=O)C(C)(C)[C@@H]4CC[C@@]3(C)[C@]1(C)CC2 (some centres unmarked)"
readout_value = 99.4

[[record]]
compound = "CN1CCN(CCCNC(=O)C2C[C@]3(C)[C@H]4CC=C5[C@@H]6CC(C)(C)CC[C@]6(C(=O)O)CC[C@@]5(C)[C@]4(C)CC[C@H]3C(C)(C)C2=O)CC1 (some centres unmarked)"
readout_value = 26.1

[[record]]
compound = "COC(=O)[C@]12CCC(C)(C)CC1C1=CCC3[C@@]4(C)CC(C(=O)NCCN5CCCC5)C(=O)C(C)(C)C4CC[C@@]3(C)[C@]1(C)CC2 (some centres unmarked)"
readout_value = 98.6


# batch size: 2; output inhibition at 16 µg/mL per entry
1. COC(=O)[C@]12CCC(C)(C)CC1C1=CCC3[C@@]4(C)CC(C(=O)NCCCN5CCOCC5)C(=O)C(C)(C)C4CC[C@@]3(C)[C@]1(C)CC2 (some centres unmarked)
2. COC(=O)[C@]12CCC(C)(C)CC1C1=CCC3[C@@]4(C)CC(C(=O)NCCCN5CCN(C)CC5)C(=O)C(C)(C)C4CC[C@@]3(C)[C@]1(C)CC2 (some centres unmarked)

*A*
93.6
99.4

Reference source: patent US9156801B2
